- Target Desc: T1, EsCas13d, nuclease-dead (Eubacterium siraeum, UniProt B0MS50, R295A;H300A;R849A;H854A)
- T1 sequence: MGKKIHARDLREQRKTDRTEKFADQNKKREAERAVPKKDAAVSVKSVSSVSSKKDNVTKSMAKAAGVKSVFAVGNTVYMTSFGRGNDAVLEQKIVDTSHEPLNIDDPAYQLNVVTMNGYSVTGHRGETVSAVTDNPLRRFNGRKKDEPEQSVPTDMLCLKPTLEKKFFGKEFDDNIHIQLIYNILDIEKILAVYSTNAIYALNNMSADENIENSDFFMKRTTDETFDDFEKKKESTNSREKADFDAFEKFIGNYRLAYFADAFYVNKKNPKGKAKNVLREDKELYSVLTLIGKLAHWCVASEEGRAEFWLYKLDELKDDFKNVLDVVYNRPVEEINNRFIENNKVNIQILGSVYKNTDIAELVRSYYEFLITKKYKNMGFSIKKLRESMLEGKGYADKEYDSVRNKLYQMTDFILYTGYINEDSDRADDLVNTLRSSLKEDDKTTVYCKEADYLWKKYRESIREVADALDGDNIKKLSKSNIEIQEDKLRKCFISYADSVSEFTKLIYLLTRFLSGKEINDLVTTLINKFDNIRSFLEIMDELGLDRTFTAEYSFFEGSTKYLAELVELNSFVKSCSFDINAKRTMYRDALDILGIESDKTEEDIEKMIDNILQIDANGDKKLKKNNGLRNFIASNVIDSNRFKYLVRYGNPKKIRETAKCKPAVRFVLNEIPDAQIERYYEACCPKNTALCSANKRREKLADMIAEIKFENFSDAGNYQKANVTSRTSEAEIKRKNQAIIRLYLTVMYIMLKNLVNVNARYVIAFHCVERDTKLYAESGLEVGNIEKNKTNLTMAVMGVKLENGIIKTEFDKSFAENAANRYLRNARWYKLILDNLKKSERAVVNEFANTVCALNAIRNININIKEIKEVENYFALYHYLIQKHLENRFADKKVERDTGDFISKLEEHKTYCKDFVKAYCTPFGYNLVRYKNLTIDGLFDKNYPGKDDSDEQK
- Test Description: crRNA (strand 1, pre-loaded); Mg2+; 40 mM Tris-HCl pH 7.5, 150 mM NaCl, 6 mM MgCl2, 1 mM DTT, 0.1% Tween-20, 0.2 mg/ml BSA; 25 C; 10 min per concentration, then washed
- Condition Label: tags: His6-TwinStrep-SUMO cleaved; N-terminal SNAP kept (SNAP-Surface 488); label: 3' end held by stalled T7 RNA polymerase
Response field label takes Fulfilled when Kd is strictly below 30 nM and Not fulfilled in all other cases.

Check out these entries, answers already filled in.
# Binder, Answer Label
measured = [
    ("target 2 MT 5'PFS AUU 3'PFS UCU (mixed) RNA 1: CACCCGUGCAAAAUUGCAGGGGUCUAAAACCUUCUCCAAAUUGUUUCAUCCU RNA 2: GGGAAUGGAUCCACAUCUACGAAUUCAUUAGGAUGAAACAAUUUGGAGAAGUCUAGAUCGGAAGAGCACACGU", "Fulfilled"),
    ("target 3 complement block 18-20 (mixed) RNA 1: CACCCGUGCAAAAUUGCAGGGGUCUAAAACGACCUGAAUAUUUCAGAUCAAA RNA 2: GGGAAUGGAUCCACAUCUACGAAUUCGUUUUACUUCUGAAAUAUUCAGGUCUGCAGAUCGGAAGAGCACACGU", "Fulfilled"),
    ("target 3 C1U,U7C (mixed) RNA 1: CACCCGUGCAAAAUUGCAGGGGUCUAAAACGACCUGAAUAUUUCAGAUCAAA RNA 2: GGGAAUGGAUCCACAUCUACGAAUUCGUUUUUGAUCUGAAAUAUCCAGGUUUGCAGAUCGGAAGAGCACACGU", "Not fulfilled"),
    ("target 1 insU 3' of 13,insA 3' of 3 (mixed) RNA 1: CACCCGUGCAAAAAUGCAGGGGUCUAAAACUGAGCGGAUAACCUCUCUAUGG RNA 2: GGGAAUGGAUCCACAUCUACGAAUUCGUACCAUAGAGAGUGUUAUCCGCUACACCGAGAUCGGAAGAGCACACGU", "Fulfilled"),
    ("target 1 G12U,A14C (mixed) RNA 1: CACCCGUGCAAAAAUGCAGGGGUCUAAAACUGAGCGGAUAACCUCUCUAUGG RNA 2: GGGAAUGGAUCCACAUCUACGAAUUCGUACCAUAGAGCGUUUAUCCGCUCACCGAGAUCGGAAGAGCACACGU", "Not fulfilled"),
]

Q: # strict comparison: is reported Kd < 30 nM? input = target 2 MT 5'PFS UUU 3'PFS CUU (mixed) RNA 1: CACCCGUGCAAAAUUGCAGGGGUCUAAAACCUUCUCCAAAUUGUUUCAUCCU RNA 2: GGGAAUGGAUCCACAUCUACGAAUUCUUUAGGAUGAAACAAUUUGGAGAAGCUUAGAUCGGAAGAGCACACGU
Result: Fulfilled

Q: # strict comparison: is reported Kd < 30 nM? input = target 1 insC 3' of 8,insA 3' of 7 (mixed) RNA 1: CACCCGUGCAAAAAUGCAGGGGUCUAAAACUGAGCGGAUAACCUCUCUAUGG RNA 2: GGGAAUGGAUCCACAUCUACGAAUUCGUACCAUAGAGAGGUUAUCCACGCUCACCGAGAUCGGAAGAGCACACGU
Result: Fulfilled
